Where do these numbers come from? They come from patent US5914327A.

Test system: A2780 S
PROTOCOL_DETAILS: In vitro cytotoxicity, two cell line test procedure (A2780 S)
Format: cell-based
MEASUREMENT_CONDITIONS: Homo sapiens, A2780S; 48 hours exposure, sulforhodamine B
Where a name gives a salt, the structure may show the parent alone.
Classify by IC50. Ranges: bottom range (below 0.6 µg/mL), center range (0.6 µg/mL to below 4 µg/mL), top range (4 µg/mL or more)

Observe how each entry below is paired with its result.
>>> class("O=C(NCCNCCO)c1cccn2c(=O)c3cc(-c4ccccc4)ccc3nc12 [Example 26, dihydrochloride]")
"center range"
>>> class("CN(C)CCNC(=O)c1cccn2c(=O)c3cc(-c4cccc(N)c4)ccc3nc12")
"bottom range"
>>> class("CN(C)CCNC(=O)c1cccn2c(=O)c3cc(-c4cc(C(F)(F)F)cc(C(F)(F)F)c4)ccc3nc12")
"center range"
>>> class("COc1ccc(-c2ccc3nc4c(C(=O)NCCN(C)C)cccn4c(=O)c3c2)cc1")
"top range"
>>> class("CN(C)CCNC(=O)c1cccn2c(=O)c3cc(-c4cccc(C(F)(F)F)c4)ccc3nc12")
"center range"

Query: Quick check: band for `Nc1ccccc1-c1ccc2nc3c(C(=O)NCCNCCO)cccn3c(=O)c2c1`
Response: top range

Query: Quick check: band for `CN(C)CCNC(=O)c1cccn2c(=O)c3ccc(-c4cccc(N)c4)cc3nc12`
Response: bottom range

Query: Quick check: band for `CN(C)CCNC(=O)c1cccn2c(=O)c3cc(-c4cccc5ccccc45)ccc3nc12`
Response: top range

Query: Quick check: band for `CN(C)CCNC(=O)c1cccn2c(=O)c3cc(-c4cccc(N(C)C)c4)ccc3nc12`
Response: bottom range

Query: Quick check: band for `CN(C)CCNC(=O)c1cccn2c(=O)c3cc(-c4ccccc4-c4ccccc4)ccc3nc12`
Response: top range
